- System: HIV-1 LAI
- Test Method Notes: microbe, parasite or virus in culture
- Experimental Setup: Human immunodeficiency virus 1, MT2, 120 h
Readout Label: pEC50
Convention used: pEC50 is expressed as -log10 of the molar concentration.

// returns reported pEC50 for input Cc1cn([C@H]2C[C@H](N=[N+]=[N-])[C@@H](CO)O2)c(=O)[nH]c1=O 8.52

// returns reported pEC50 for input CC(C)(C)NC(=O)[C@@H]1C[C@@H]2CCCC[C@@H]2CN1C[C@@H](O)[C@H](Cc1ccccc1)NC(=O)[C@H](CC(N)=O)NC(=O)c1ccc2ccccc2n1 8.05

// returns reported pEC50 for input Nc1ccn([C@@H]2CS[C@H](CO)O2)c(=O)n1 6.85

* * *

- Tested on: HIV-1 LAI
- Test Method Notes: microbe, parasite or virus in culture
- Experimental Setup: combination with Compound 1, EC50 ratio 1:1; 75% HIV inhibition; 95% CI in parenthesis
Answer each item with its documented Combination Indices at % HIV Inhibition (Confidence Interval) 75%.

Recall the recorded Combination Indices at % HIV Inhibition (Confidence Interval) 75% for Nc1nc(NC2CC2)c2ncn([C@H]3C=C[C@@H](CO)C3)c2n1 with HIV-1 LAI and state it. 0.51 (0.20, 0.82)

Recall the recorded Combination Indices at % HIV Inhibition (Confidence Interval) 75% for CC(C)(C)NC(=O)[C@@H]1C[C@@H]2CCCC[C@@H]2CN1C[C@@H](O)[C@H](Cc1ccccc1)NC(=O)[C@H](CC(N)=O)NC(=O)c1ccc2ccccc2n1 with HIV-1 LAI and state it. 0.92 (0.76, 1.07)

Recall the recorded Combination Indices at % HIV Inhibition (Confidence Interval) 75% for CC(C)CN(C[C@@H](O)[C@H](Cc1ccccc1)NC(=O)O[C@H]1CCOC1)S(=O)(=O)c1ccc(N)cc1 with HIV-1 LAI and state it. 0.93 (0.68, 1.17)

* * *

- System: HIV-1 LAI
- Test Method Notes: microbe, parasite or virus in culture
- Experimental Setup: Human immunodeficiency virus 1, MT2, 120 h
Decision: EC50 beneath 30 nM gives 1; EC50 meeting or exceeding 30 nM gives 0.

Determine whether this molecule shows EC50 lower than 30 nM (ties excluded): COC(=O)N[C@H](C(=O)N[C@@H](Cc1ccccc1)[C@@H](O)CN(Cc1ccc(-c2ccccn2)cc1)NC(=O)[C@@H](NC(=O)OC)C(C)(C)C)C(C)(C)C 1

Determine whether this molecule shows EC50 lower than 30 nM (ties excluded): Cc1c(O)cccc1C(=O)N[C@@H](CSc1ccccc1)[C@H](O)CN1C[C@H]2CCCC[C@H]2C[C@H]1C(=O)NC(C)(C)C 1

Determine whether this molecule shows EC50 lower than 30 nM (ties excluded): O=c1[nH]cnc2c1ncn2[C@H]1CC[C@@H](CO)O1 0

Determine whether this molecule shows EC50 lower than 30 nM (ties excluded): Cc1cn([C@H]2C=C[C@@H](CO)O2)c(=O)[nH]c1=O 0

Determine whether this molecule shows EC50 lower than 30 nM (ties excluded): Nc1nc(=O)n([C@@H]2CS[C@H](CO)O2)cc1F 0

Determine whether this molecule shows EC50 lower than 30 nM (ties excluded): Nc1ccn([C@H]2CC[C@@H](CO)O2)c(=O)n1 0

Determine whether this molecule shows EC50 lower than 30 nM (ties excluded): CON(Cc1ccc(F)cc1)C(=O)C=C(O)C(=O)O 0

Determine whether this molecule shows EC50 lower than 30 nM (ties excluded): Cc1cccc(C)c1OCC(=O)N[C@@H](Cc1ccccc1)[C@@H](O)C[C@H](Cc1ccccc1)NC(=O)[C@H](C(C)C)N1CCCNC1=O 1
